assay: Rat plasma stability (half-life in vitro); type: in vitro ADME; settings: male, Sprague-Dawley, rat, plasma, Table I; rat plasma, 37° C., up to 24 h
Observable: half-life at 0.182 mM (min)
Answer in min, number only, no unit symbol.

Value of half-life at 0.182 mM reported for the compound CC(C)C[C@@H]1NC(=O)[C@H](CCCNC(=N)N)NC(=O)[C@@H](N)CC=CC[C@@H](C(=O)N[C@@H](CCCCN)C(=O)NCC(=O)N2CCC[C@H]2C(=O)N[C@@H](Cc2ccc3ccccc3c2)C(=O)O)NC(=O)[C@H](CO)NC1=O [Compound 36, NH2-c[X-R-L-S-X]c-K-G-P-2Nal] is 24

For this compound ( CC(C)C[C@@H]1NC(=O)[C@H](CCCNC(=N)N)NC(=O)[C@@H](N)CC=CC[C@@H](C(=O)N[C@@H](CCCCN)C(=O)NCC(=O)N2CCC[C@H]2C(=O)N[C@@H](Cc2cccc3ccccc23)C(=O)O)NC(=O)[C@H](CO)NC1=O [Compound 35, NH2-c[X-R-L-S-X]c-K-G-P-1Nal] ), measured half-life at 0.182 mM is 18

Recorded half-life at 0.182 mM (compound CCCC[C@H](NC(=O)[C@@H]1CCCN1C(=O)CNC(=O)[C@H](CCCCN)NC(=O)[C@@H]1Cc2cncn2CC=CC[C@H](N)C(=O)N[C@@H](CCCNC(=N)N)C(=O)N[C@@H](CC(C)C)C(=O)N[C@@H](CO)C(=O)N1)C(=O)N1CCC[C@H]1C(=O)N[C@@H](Cc1ccccc1)C(=O)O [Compound 25, NH2-c[X-R-L-S-Alh]c-K-G-P-Nle-P-F] ): 120

---

target: hAPJ receptor (Homo sapiens, UniProt P35414); construct: expressed in transfected cells; host or cells: HEK293, transient transfection with PEI; assay: BRET-based β-arrestin2 recruitment assay in HEK293 cells; type: cell-based; details: HEK293; read-out: β-arr2 Emax
Sequence (P35414 whole entry): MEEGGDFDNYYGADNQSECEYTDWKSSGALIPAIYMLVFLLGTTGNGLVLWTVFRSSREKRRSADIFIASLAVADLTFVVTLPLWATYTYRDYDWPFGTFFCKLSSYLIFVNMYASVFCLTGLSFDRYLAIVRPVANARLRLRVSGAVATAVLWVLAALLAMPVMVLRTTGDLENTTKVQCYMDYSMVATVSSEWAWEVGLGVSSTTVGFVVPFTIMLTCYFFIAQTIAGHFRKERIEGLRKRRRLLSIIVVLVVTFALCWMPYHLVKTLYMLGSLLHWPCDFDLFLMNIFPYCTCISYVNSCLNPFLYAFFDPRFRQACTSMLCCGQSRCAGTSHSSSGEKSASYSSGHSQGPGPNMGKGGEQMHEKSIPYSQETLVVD
Observable: Emax (%)
Express the result in % but write the number alone.

Emax in this record for CC(C)C[C@@H]1NC(=O)[C@H](CCCNC(=N)N)NC(=O)[C@@H](N)CC=CC[C@@H](C(=O)N[C@@H](CCCCN)C(=O)NCC(=O)N2CCC[C@H]2C(=O)N[C@H](Cc2cccc3ccccc23)C(=O)O)NC(=O)[C@H](CO)NC1=O [Compound 42, NH2-c[X-R-L-S-X]c-K-G-P-(D-1Nal)] : 70

GET /value?item= CCCC[C@H](NC(=O)[C@@H]1CCCN1C(=O)CNC(=O)[C@H](CCCCN)NC(=O)[C@@H]1CC=CC[C@H](N)C(=O)N[C@@H](CCCNC(=N)N)C(=O)N[C@@H](CC(C)C)C(=O)N[C@@H](CO)C(=O)N1)C(=O)O [Compound 29, NH2-c[X-R-L-S-X]c-K-G-P-Nle] &field=Emax returns 69
